Data provenance is patent US9550000B2.

experiment_notes: Tissue distribution in rabbits
Format: in vivo
assay_context: bolus iv injection, blood
Quick reference for Rabbit Blood among some compounds
Remember to quote the unit after the number.

Some solved cases for reference:
N=C(N)NCc1ccc2cc(OCCCF)ccc2c1 [Example 12]: 0.04 ± 0.02 % ID/g
N=C(N)NCc1ccc2cc(OCCF)ccc2c1 [Example 11]: 0.04 ± 0.01 % ID/g

Entry under review: N=C(N)NCc1ccc(COCCF)c(Br)c1 [Example 4] . Reported Rabbit Blood? 0.014 % ID/g

Entry under review: N=C(N)NCc1ccc(CF)c(Br)c1 [Example 3] . Reported Rabbit Blood? 0.01 % ID/g

====

experiment_notes: Tissue distribution in rabbits
Assay type: in vivo
assay_context: bolus iv injection, lung
Quick reference for Rabbit Lung among some compounds
Expressed in % ID/g, but write only the number.

Some solved cases for reference:
N=C(N)NCc1ccc2cc(OCCCF)ccc2c1 [Example 12]: 0.28
N=C(N)NCc1ccc2cc(OCCF)ccc2c1 [Example 11]: 0.39
N=C(N)NCc1ccc(CF)c(Br)c1 [Example 3]: 0.39

Entry under review: N=C(N)NCc1ccc(COCCF)c(Br)c1 [Example 4] . Reported Rabbit Lung? 0.031

====

experiment_notes: Tissue distribution in rabbits
Assay type: in vivo
assay_context: bolus iv injection, heart
Quick reference for Rabbit Heart among some compounds
Expressed in % ID/g, but write only the number.

Some solved cases for reference:
N=C(N)NCc1ccc(CF)c(Br)c1 [Example 3]: 0.29
N=C(N)NCc1ccc2cc(OCCCF)ccc2c1 [Example 12]: 0.29
N=C(N)NCc1ccc2cc(OCCF)ccc2c1 [Example 11]: 0.39

Next:
Entry under review: N=C(N)NCc1ccc(COCCF)c(Br)c1 [Example 4] . Reported Rabbit Heart? 0.025

====

Test system: PC-12 cells
experiment_notes: PC-12 binding assay (cell uptake with or without desipramine)
Format: cell-based, rat
assay_context: 0.1 μCi test agent, 60 min at 37° C., without desipramine (total uptake)
Decision: PC-12 (% bound) Control >= 3 % bound yields 1, all other cases yield -1.

Sample answers from the record:
N=C(N)NCCc1ccc(CCCF)cc1 [Example 33, 1-(4-(3-fluoropropyl)phenethyl)guanidine]: -1
N=C(N)NCc1ccc(CF)c(Br)c1 [Example 3]: 1
N=C(N)NCc1ccc2cc(OCCCF)ccc2c1 [Example 12]: 1
N=C(N)NCc1ccc2cc(OCCF)ccc2c1 [Example 11]: 1
N=C(N)NCCc1c[nH]c2ccc(OCCF)cc12 [Example 21]: -1
N=C(N)NCc1ccc(CCF)c(Br)c1 [Example 8]: -1

Form field: PC-12 (% bound) Control at least 3 % bound? Entry: N=C1NCC(c2ccc(OCCF)c(Br)c2)N1 (stereo not shown) [Example 2] 1

Form field: PC-12 (% bound) Control at least 3 % bound? Entry: N=C1NCC(c2ccc(OCCF)cc2)N1 (stereo not shown) [Example 1] 1

Form field: PC-12 (% bound) Control at least 3 % bound? Entry: N=C(N)NCc1ccc(CCF)cc1 [Example 5, 1-[4-(2-fluoroethyl)benzyl]guanidine] -1

Form field: PC-12 (% bound) Control at least 3 % bound? Entry: N=C(N)NCc1ccc(COCCF)c(Br)c1 [Example 4] -1

====

experiment_notes: Tissue distribution in rats
Format: in vivo
assay_context: bolus iv injection, liver
Description: Male Sprague Dawley rats (300-500 g, Taconic), and male New Zealand rabbits (3-4 kg, Covance) were used in accordance with our Institutional Animal Care and Use Committee. […] After preparation, each animal received a bolus injection of the test agent via the venous catheter. […] Tissue uptake of each agent was determined as a percentage of the injected dose per gram tissue (% ID/g).
Mark Satisfied only for Rat Liver values smaller than 0.2 % ID/g; exact matches and larger values are Not satisfied.

Sample answers from the record:
N=C(N)NCCc1ccc(CCCF)cc1: Not satisfied
N=C(N)NCCc1c[nH]c2ccc(OCCF)cc12: Not satisfied
N=C1NCC(c2ccc(OCCF)cc2)N1 (stereo not shown): Satisfied
N=C1NCC(c2ccc(OCCF)c(Br)c2)N1 (stereo not shown): Not satisfied
N=C(N)NCc1ccc(CCF)cc1 [Example 5, 1-[4-(2-fluoroethyl)benzyl]guanidine]: Not satisfied
N=C(N)NCc1ccc2cc(OCCF)ccc2c1: Not satisfied
N=C(N)NCc1ccc(CF)c(Br)c1: Satisfied
N=C(N)NCc1ccc(COCCF)c(Br)c1: Not satisfied

Dear reviewer, please state whether "N=C(N)NCc1ccc(CCF)c(Br)c1" has Rat Liver strictly beneath 0.2 % ID/g. Not satisfied

Dear reviewer, please state whether "N=C(N)NCc1ccc2cc(OCCCF)ccc2c1" has Rat Liver strictly beneath 0.2 % ID/g. Satisfied
